Study Target: recombinant DYRK1A kinase (Homo sapiens (Human))
Measurement Description: DYRK1A kinase assay (Ser/Thr 18 peptide Z-lyte FRET assay)
Measurement Parameters: recombinant DYRK1A 0.25 µg/mL, ATP 15 µM, Ser/Thr peptide 18 4 µM, one hour at room temperature; table head prints EC50, method says IC50
Attribute Measured: pEC50
Kindly note that pEC50 refers to -log10 of the concentration in mol/L and answer with the value alone.

Take a look at these entries with their results.
input: Could you please provide reported pEC50 for C[C@]1(O)CC[C@@H](Nc2ncc3c(-c4ccc5nccnc5c4)ccn3n2)CC1 ? Thanks!
output: 7.85

input: Query pEC50 for Cc1nc2ncc(-c3ccn4nc(NCC(C)(C)F)ncc34)cc2n1C1CC(F)(F)C1
output: 7.96

input: In one line, give reported pEC50 of the entry Cc1nc2ccc(-c3ccn4nc(N[C@H]5CC[C@@H](OC(F)F)CC5)ncc34)nc2n1CC(F)F .
output: 8.15

input: Look up and report measured pEC50 for this entry: CC(=O)N1C[C@@H](F)[C@@H](Nc2ncc3c(-c4ccc5nc(C)n(CC(F)F)c5n4)ccn3n2)C1
output: 8.15

input: Input CO[C@H]1C[C@H](Nc2ncc3c(-c4ccc5nccnc5c4)ccn3n2)C1 , output reported pEC50.
output: 7.85

input: Quote pEC50 reported for Cn1nnc2ccc(-c3ccn4nc(NCC(C)(C)F)ncc34)cc21 please.
output: 7.18

***
input: State its pEC50 for this compound: Cc1nc2ncc(-c3ccn4nc(N[C@H]5CC[C@@H](OCCO)CC5)ncc34)cc2n1CC(F)F
output: 8.70

input: Identify measured pEC50 corresponding to CC(C)(F)CNc1ncc2c(-c3cnc4ncc(Cl)n4c3)ccn2n1
output: 6.77

input: Let me know recorded pEC50 for Cc1nc2ccc(-c3ccn4nc(NC5CC(F)(F)C5)ncc34)nc2n1CC(F)F , thanks.
output: 8.40

input: Indicate its recorded pEC50; the compound in question is C[C@]1(O)CC[C@@H](Nc2ncc3c(-c4ccc5ncccc5c4)ccn3n2)CC1
output: 8.15

input: Output measured pEC50 for this item: FC1(F)CC(Nc2ncc3c(-c4cnc5nccn5c4)ccn3n2)C1
output: 8.05

input: Give the reported pEC50 for this compound. C[C@]1(O)CC[C@H](Nc2ncc3c(-c4ccn5nccc5c4)ccn3n2)CC1
output: 7.96

input: Answer with the recorded pEC50 of COCCO[C@H]1CC[C@@H](Nc2ncc3c(-c4cnc5ncccc5c4)ccn3n2)CC1 only.
output: 8.70

input: Let me know recorded pEC50 for CCO[C@H]1CC[C@@H](Nc2ncc3c(-c4cnc5ncccc5c4)ccn3n2)CC1 , thanks.
output: 8.52

input: Return pEC50 (reported value) for this compound: Cc1nc2ncc(-c3ccn4nc(NC5CCC6(CC5)OCCO6)ncc34)cc2n1CC(F)F
output: 8.52

input: Item Cc1nc2ncc(-c3ccn4nc(NC5CCOCC5)ncc34)cc2n1CC(F)F : provide pEC50
output: 8.30

input: State its pEC50: c1cn2cc(-c3ccn4nc(NC5CCC5)ncc34)cnc2n1
output: 6.42

###

Test system: Tau phosphorylation at Thr212 (pThr212) in HEK293T cells transfected with DYRK1A and MAPT
Measurement Description: phosphoTau (Thr212) AlphaLISA tau phosphorylation cell assay
Type: cell-based
Measurement Parameters: HEK-293T, HEK293T cells transiently transfected with human DYRK1A and MAPT, compound treatment 18-24 hours, read-out: pTau (Thr212) EC50
Listing: pEC50 of selected compounds
The read-out pEC50 is expressed as -log10 of concentration in moles per litre.

The following compounds have reported results that may help.
input: Under Tau phosphorylation at Thr212 (pThr212) in HEK293T cells transfected with DYRK1A and MAPT: report pEC50 of Cc1nc2ccc(-c3ccn4nc(NCC(C)(C)F)ncc34)nc2n1C(C)C .
output: 6.82

input: Quote Tau phosphorylation at Thr212 (pThr212) in HEK293T cells transfected with DYRK1A and MAPT pEC50 for entry FC1(F)CC(Nc2ncc3c(-c4ccc5nccn5c4)ccn3n2)C1 .
output: 6.10

input: For Tau phosphorylation at Thr212 (pThr212) in HEK293T cells transfected with DYRK1A and MAPT, give the measured pEC50 of the entry CO[C@H]1CC[C@@H](Nc2ncc3c(-c4cnc5nccn5c4)ccn3n2)CC1
output: 6.82

input: State pEC50 (Tau phosphorylation at Thr212 (pThr212) in HEK293T cells transfected with DYRK1A and MAPT) of c1cn2cc(-c3ccn4nc(NC5CC6(COC6)C5)ncc34)cnc2n1 .
output: 6.76

input: Name the value of pEC50 reported for c1cn2cc(-c3ccn4nc(NC5COC5)ncc34)ccc2n1 when tested on Tau phosphorylation at Thr212 (pThr212) in HEK293T cells transfected with DYRK1A and MAPT.
output: 6.08

input: Provide pEC50, system Tau phosphorylation at Thr212 (pThr212) in HEK293T cells transfected with DYRK1A and MAPT, entry FC1(F)CC2(CC(Nc3ncc4c(-c5cnc6nccn6c5)ccn4n3)C2)C1
output: 7.15

---
input: State the measured pEC50 (Tau phosphorylation at Thr212 (pThr212) in HEK293T cells transfected with DYRK1A and MAPT) of CO[C@H]1CC[C@@H](Nc2ncc3c(-c4ccc5nc(C)n(CC(F)F)c5n4)ccn3n2)CC1
output: 7.15

input: Provide pEC50, recorded with Tau phosphorylation at Thr212 (pThr212) in HEK293T cells transfected with DYRK1A and MAPT, of c1cnc2cc(-c3ccn4nc(NC5CC6(COC6)C5)ncc34)ccc2n1
output: 6.67

input: Tell me its pEC50 on Tau phosphorylation at Thr212 (pThr212) in HEK293T cells transfected with DYRK1A and MAPT: Cc1nc2ncc(-c3ccn4nc(NCC(C)(C)F)ncc34)cc2n1C1CCOCC1
output: 6.29

input: State measured pEC50 of the compound FC1(F)CCC(Nc2ncc3c(-c4cnc5nccn5c4)ccn3n2)CC1 with Tau phosphorylation at Thr212 (pThr212) in HEK293T cells transfected with DYRK1A and MAPT.
output: 6.66

input: Tell me its pEC50 on Tau phosphorylation at Thr212 (pThr212) in HEK293T cells transfected with DYRK1A and MAPT: O[C@H]1CC[C@@H](Nc2ncc3c(-c4ccc5nccnc5c4)ccn3n2)CC1
output: 6.14

input: Enter pEC50 (test system Tau phosphorylation at Thr212 (pThr212) in HEK293T cells transfected with DYRK1A and MAPT) for CO[C@H]1C[C@@H](Nc2ncc3c(-c4ccc5nccn5c4)ccn3n2)C1
output: 6.62

###

molecules and their reported pEC50
Study Target: recombinant DYRK1A kinase (Homo sapiens (Human))
Measurement Description: DYRK1A kinase assay (Ser/Thr 18 peptide Z-lyte FRET assay)
Measurement Parameters: recombinant DYRK1A 0.25 µg/mL, ATP 15 µM, Ser/Thr peptide 18 4 µM, one hour at room temperature; table head prints EC50, method says IC50
Keep in mind that pEC50 stands for -log10 of concentration in molar terms.

Take a look at these entries with their results.
input: Return the recorded pEC50 value; entry: Cc1nc2ncc(-c3ccn4nc(N[C@@H]5CCN(C)C[C@@H]5F)ncc34)cc2n1CC(F)F [Compound 1884]
output: 8.15

input: Identify measured pEC50 corresponding to CC(=O)N[C@]1(C)C[C@@H](Nc2ncc3c(-c4ccc5nccnc5c4)ccn3n2)C1 [Compound 1981]
output: 8.70

input: Answer with the recorded pEC50 for the molecule listed here: CN1CCC(Nc2ncc3c(-c4ccc5nccn5c4)ccn3n2)CC1 [Compound 66]
output: 6.58

New cases:
input: State its pEC50: FC1(F)CCC(Nc2ncc3c(-c4cnc5nccn5c4)ccn3n2)CC1 [Compound 256]
output: 8.30

input: Return value of pEC50 for input CCc1cnc2ncc(-c3ccn4nc(NCC(C)(C)F)ncc34)cn12 [Compound 429] , no commentary.
output: 6.18

input: // fetch pEC50 given entry c1cn2cc(-c3ccn4nc(NCC5CCCO5)ncc34)ccc2n1 (centres unmarked) [Compound 21]
output: 7.21

input: Give the reported pEC50 for this molecule. COCCO[C@H]1C[C@@H](Nc2ncc3c(-c4cnc5ncccc5c4)ccn3n2)C1 [Compound 1522]
output: 8.52

input: Identify measured pEC50 associated with Cc1nc2ccc(-c3ccn4nc(N[C@@H]5CCN(C)C[C@H]5F)ncc34)nc2n1CC(F)F [Compound 1854]
output: 8.10

input: Look up and report measured pEC50 for this entry: Cc1nc2ccc(-c3ccn4nc(N[C@H]5CC[C@@](C)(O)CC5)ncc34)nc2n1CC(=O)N(C)C [Compound 1872]
output: 6.30

input: For the molecule Cc1nc2ccc(-c3ccn4nc(N[C@@H]5CCN(CC(C)C)C[C@@H]5F)ncc34)nc2n1CC(F)F [Compound 1908] , report pEC50.
output: 8.15

input: Tell me pEC50 reported for FC(F)(F)C1(CNc2ncc3c(-c4cnc5nccn5c4)ccn3n2)CC1 [Compound 226]
output: 7.96
